Target: UniProt:P79350
pIC50: −log10 of the molar value.
assayReadout: pIC50

INSERT INTO assay_data (compound, recordednumber) VALUES
  ('COc1ccc2c3c1O[C@H]1C(=O)C=C[C@@]4(NC(=O)/C=C/c5ccc([N+](=O)[O-])cc5)C(C2)N(CC2CC2)CCC314 (some centres not stated)', 8.84),
  ('COc1ccc2c3c1O[C@@]1(C)C(=O)C=C[C@@]4(NC(=O)/C=C/c5ccc([N+](=O)[O-])cc5)C(C2)N(CC2CC2)CCC314 (some centres not stated)', 7.43),
  ('C[C@@]12Oc3c(O)ccc4c3C13CCN(CC1CC1)C(C4)[C@]3(NC(=O)/C=C/c1ccc([N+](=O)[O-])cc1)CCC2=O (some centres not stated)', 9.28),
  ('CN1CC[C@]23c4c5ccc(O)c4O[C@H]2C(=O)CC[C@@]3(NC(=O)/C=C/c2ccc([N+](=O)[O-])cc2)[C@H]1C5', 9.55),
  ('C[C@@]12Oc3c(O)ccc4c3C13CCN(CC1CC1)C(C4)[C@]3(NC(=O)/C=C/c1ccc([N+](=O)[O-])cc1)C=CC2=O (some centres not stated)', 8.73),
  ('C[C@@]12Oc3c(O)ccc4c3C13CCN(CC1CC1)C(C4)[C@]3(NC(=O)CCc1ccc([N+](=O)[O-])cc1)CCC2=O (some centres not stated)', 7.62),
  ('CN1CCC23c4c5ccc(O)c4O[C@@]2(C)C(=O)C=C[C@@]3(NC(=O)/C=C/c2ccc([N+](=O)[O-])cc2)C1C5 (some centres not stated)', 9.10);

---

pIC50: −log10 of the molar value.
# collection of pIC50 values tested on Mu-type opioid receptor (Bos taurus, UniProt P79350)
# Sequence (P79350 whole entry): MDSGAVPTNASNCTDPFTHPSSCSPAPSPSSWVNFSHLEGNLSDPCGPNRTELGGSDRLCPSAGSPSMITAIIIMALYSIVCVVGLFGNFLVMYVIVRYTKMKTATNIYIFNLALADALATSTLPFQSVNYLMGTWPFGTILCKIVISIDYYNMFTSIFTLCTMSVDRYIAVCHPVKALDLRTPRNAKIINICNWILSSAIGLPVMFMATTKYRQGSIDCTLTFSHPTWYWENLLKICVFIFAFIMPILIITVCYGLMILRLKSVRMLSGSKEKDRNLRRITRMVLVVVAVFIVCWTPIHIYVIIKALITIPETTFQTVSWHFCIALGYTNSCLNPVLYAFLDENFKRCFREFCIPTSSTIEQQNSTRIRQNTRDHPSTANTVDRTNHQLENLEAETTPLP
assayReadout: pIC50

INSERT INTO measurements (compound, recordednumber) VALUES
  ('COc1ccc2c3c1O[C@H]1C(=O)CC[C@@]4(NC(=O)/C=C/c5ccc([N+](=O)[O-])cc5)C(C2)N(C)CCC314 (stereo partly drawn)', 9.36),
  ('O=C(/C=C/c1ccc([N+](=O)[O-])cc1)N[C@@]12C=CC(=O)[C@@H]3Oc4c(O)ccc5c4C31CCN(CC1CC1)C2C5 (stereo partly drawn)', 8.11),
  ('COc1ccc2c3c1O[C@@]1(C)C(=O)CC[C@@]4(NC(=O)/C=C/c5ccc([N+](=O)[O-])cc5)C(C2)N(C)CCC314 (stereo partly drawn)', 6.98),
  ('COc1ccc2c3c1O[C@@]1(C)C(=O)C=C[C@@]4(NC(=O)/C=C/c5ccc([N+](=O)[O-])cc5)C(C2)N(C)CCC314 (stereo partly drawn)', 7.44),
  ('O=C(/C=C/c1ccc([N+](=O)[O-])cc1)N[C@@]12CCC(=O)[C@@H]3Oc4c(O)ccc5c4[C@@]31CCN(CC1CC1)[C@@H]2C5', 9.06),
  ('COc1ccc2c3c1O[C@@]1(C)C(=O)CC[C@@]4(NC(=O)/C=C/c5ccc([N+](=O)[O-])cc5)C(C2)N(CC2CC2)CCC314 (stereo partly drawn)', 7.49),
  ('CN1CCC23c4c5ccc(O)c4O[C@H]2C(=O)C=C[C@@]3(NC(=O)/C=C/c2ccc([N+](=O)[O-])cc2)C1C5 (stereo partly drawn)', 8.84),
  ('COc1ccc2c3c1O[C@H]1C(=O)C=C[C@@]4(NC(=O)/C=C/c5ccc([N+](=O)[O-])cc5)C(C2)N(C)CCC314 (stereo partly drawn)', 9.00);
